Biological target: CDK12 (Homo sapiens, UniProt Q9NYV4)
Construct: endogenous in cells; host or cells: CAL-120 human breast cancer cells (DSMZ ACC 459)
Sequence (Q9NYV4 whole entry): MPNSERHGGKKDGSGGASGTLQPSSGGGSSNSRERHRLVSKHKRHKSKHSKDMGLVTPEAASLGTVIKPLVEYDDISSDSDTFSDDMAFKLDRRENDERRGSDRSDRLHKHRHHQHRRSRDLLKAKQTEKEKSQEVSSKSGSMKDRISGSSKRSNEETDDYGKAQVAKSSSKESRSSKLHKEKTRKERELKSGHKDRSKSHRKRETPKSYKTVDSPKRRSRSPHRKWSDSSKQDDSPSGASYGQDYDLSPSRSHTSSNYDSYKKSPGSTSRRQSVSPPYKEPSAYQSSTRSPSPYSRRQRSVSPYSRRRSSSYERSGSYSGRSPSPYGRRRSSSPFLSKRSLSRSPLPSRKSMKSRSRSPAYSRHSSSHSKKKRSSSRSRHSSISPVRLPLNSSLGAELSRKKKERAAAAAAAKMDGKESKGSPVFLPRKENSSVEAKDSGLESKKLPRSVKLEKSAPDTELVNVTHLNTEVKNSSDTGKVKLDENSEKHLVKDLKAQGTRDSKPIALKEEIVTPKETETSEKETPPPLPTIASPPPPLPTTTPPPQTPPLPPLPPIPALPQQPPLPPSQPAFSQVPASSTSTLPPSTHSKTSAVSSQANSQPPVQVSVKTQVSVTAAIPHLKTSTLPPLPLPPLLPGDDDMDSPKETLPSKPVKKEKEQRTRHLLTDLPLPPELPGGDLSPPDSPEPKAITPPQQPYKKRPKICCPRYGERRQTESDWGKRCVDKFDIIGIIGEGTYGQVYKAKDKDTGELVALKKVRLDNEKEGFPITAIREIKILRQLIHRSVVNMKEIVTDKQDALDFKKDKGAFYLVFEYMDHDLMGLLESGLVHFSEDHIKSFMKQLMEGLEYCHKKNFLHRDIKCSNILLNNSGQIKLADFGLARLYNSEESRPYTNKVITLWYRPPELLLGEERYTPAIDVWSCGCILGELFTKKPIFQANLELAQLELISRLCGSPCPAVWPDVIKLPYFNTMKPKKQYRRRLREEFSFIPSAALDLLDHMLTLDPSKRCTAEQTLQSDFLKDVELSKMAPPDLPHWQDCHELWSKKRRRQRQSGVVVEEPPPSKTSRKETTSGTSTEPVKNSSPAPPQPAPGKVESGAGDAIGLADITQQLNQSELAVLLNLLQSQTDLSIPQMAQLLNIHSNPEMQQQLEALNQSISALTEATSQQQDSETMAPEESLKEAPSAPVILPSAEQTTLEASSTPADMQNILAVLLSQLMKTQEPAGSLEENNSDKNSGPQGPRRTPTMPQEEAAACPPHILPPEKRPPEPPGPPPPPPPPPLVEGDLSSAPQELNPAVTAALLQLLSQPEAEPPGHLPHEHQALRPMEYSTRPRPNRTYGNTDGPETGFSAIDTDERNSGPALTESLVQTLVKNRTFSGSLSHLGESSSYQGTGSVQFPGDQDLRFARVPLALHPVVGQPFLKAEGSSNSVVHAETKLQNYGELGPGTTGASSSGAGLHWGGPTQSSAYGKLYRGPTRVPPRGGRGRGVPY
Sequence (O75909 whole entry partner): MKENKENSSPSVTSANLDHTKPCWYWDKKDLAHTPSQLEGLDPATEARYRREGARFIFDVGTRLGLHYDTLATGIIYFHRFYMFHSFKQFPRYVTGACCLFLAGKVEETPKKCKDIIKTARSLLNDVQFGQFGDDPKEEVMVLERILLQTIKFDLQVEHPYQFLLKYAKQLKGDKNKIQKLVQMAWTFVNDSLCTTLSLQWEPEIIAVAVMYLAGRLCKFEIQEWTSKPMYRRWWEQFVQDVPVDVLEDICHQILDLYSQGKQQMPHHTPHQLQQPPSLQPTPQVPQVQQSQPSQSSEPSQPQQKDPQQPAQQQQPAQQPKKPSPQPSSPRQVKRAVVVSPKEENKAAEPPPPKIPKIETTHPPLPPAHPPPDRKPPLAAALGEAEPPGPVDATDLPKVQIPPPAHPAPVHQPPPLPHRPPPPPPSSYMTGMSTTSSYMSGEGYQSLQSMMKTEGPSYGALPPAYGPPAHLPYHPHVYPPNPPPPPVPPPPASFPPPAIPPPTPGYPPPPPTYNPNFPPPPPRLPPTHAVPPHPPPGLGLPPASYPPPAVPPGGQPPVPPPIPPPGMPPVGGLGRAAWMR
Test: CDK12 nuclear protein level: immunofluorescence/high content analysis in CAL-120 cells
Format: cell-based
Conditions: ratio of IC50 CDK12 hATP (2 mM ATP) to DC50 CDK12 (IF, CAL-120)
List of (IC50 CDK12 high ATP) to (Degradation DC50 CDK12) ratio values.

# count of solved cases: 3
> print(dat)
                                   compound  value
1  CN(C)CCn1nc(NCc2nc3ccccc3[nH]2)c2ncc(C3CC3)nc21 [Example 68]   >687
2  FC1(F)CCC(n2nc(NCc3nc4ccccc4[nH]3)c3ncc(C4CC4)nc32)CC1 [Example 36]   >124
3  OCCn1nc(NCc2nc3ccccc3[nH]2)c2ncc(C3CC3)nc21 [Example 66]  >1116

Next compound, please.
[ask] For the compound shown here, Cc1c(Cl)ccc2[nH]c(CNc3nn(C4CCN(C)CC4)c4nc(C5CC5)cnc34)nc12 [Example 21] , give the reported (IC50 CDK12 high ATP) to (Degradation DC50 CDK12) ratio.
[reply] >697

====

Molecular target: CDK12 (Homo sapiens)
Construct: endogenous in cells; host or cells: CAL-120 human breast cancer cells (DSMZ ACC 459)
Assay: CDK12 nuclear protein level: immunofluorescence/high content analysis in CAL-120 cells
Type: cell-based
Conditions: ratio of IC50 CDK12 hATP (2 mM ATP) to DC50 CDK12 (IF, CAL-120)
assay endpoint: (IC50 CDK12 high ATP) to (Degradation DC50 CDK12) ratio

> print(dat)
                                   compound  value
1  Cc1ccc2[nH]c(CNc3nn(C4CCN(C)CC4)c4nc(C5CC5)cnc34)nc2c1C [Example 28]  >1880

[ask] For the compound shown here, CN1CCC(n2nc(NCc3nc4ccccc4[nH]3)c3ncc(C4CC4)nc32)C1 (single isomer, unassigned) [Example 78] , give the reported (IC50 CDK12 high ATP) to (Degradation DC50 CDK12) ratio.
[reply] >596

====

Target: CYCLIN K (Homo sapiens, UniProt O75909)
Construct: endogenous in cells; host or cells: CAL-120 human breast cancer cells (DSMZ ACC 459)
Sequence (O75909 whole entry): as the sequence (O75909 whole entry partner) above
Sequence (Q9NYV4 whole entry partner): as the sequence (Q9NYV4 whole entry) above
Test: CYCLIN K nuclear protein level: immunofluorescence/high content analysis in CAL-120 cells
Assay type: cell-based
Conditions: 24 h, nuclear CCNK staining intensity, median, read-out: CYCLIN K degradation IF, DC50- [mol/l] (median)
assay endpoint: DC50 (nM)

a = CC1(C)CC(n2nc(NCc3nc4ccccc4[nH]3)c3ncc(C4CC4)nc32)CC(C)(C)O1 [Example 52]
b = CN1CCC(n2nc(NCc3nc4cc(Cl)c(Cl)cc4[nH]3)c3ncc(C4CC4)nc32)CC1 [Example 19]
c = c1ccc2[nH]c(CNc3nn(C4CC5(COC5)C4)c4nc(C5CC5)cnc34)nc2c1 [Example 54]
d = c1ccc2[nH]c(CNc3nn(C4CCC4)c4nc(C5CC5)cnc34)nc2c1 [Example 49]
[ask] Exam item: list the entries in increasing order of DC50. # the answer lists labels in the order requested
[reply] b, c, d, a
(b: 0.339 nM, c: 3.31 nM, d: 25.7 nM, a: 92.6 nM)

====

Biological target: CDK12 (Homo sapiens, UniProt Q9NYV4)
Construct: endogenous in cells; host or cells: CAL-120 human breast cancer cells (DSMZ ACC 459)
Assay: CDK12 nuclear protein level: immunofluorescence/high content analysis in CAL-120 cells
Assay type: cell-based
Details: ratio of IC50 CDK12 hATP (2 mM ATP) to DC50 CDK12 (IF, CAL-120)
assay endpoint: (IC50 CDK12 high ATP) to (Degradation DC50 CDK12) ratio

# count of solved cases: 5
> print(dat)
                                   molecule  value
1  CN1CCC(n2nc(NCc3nc4c(Br)cccc4[nH]3)c3ncc(C4CC4)nc32)CC1  >1050
2  CC(C)(O)Cn1nc(NCc2nc3ccccc3[nH]2)c2ncc(C3CC3)nc21   >101
3  CN1CCC(n2nc(NCc3nc4cc(Cl)c(F)cc4[nH]3)c3ncc(C4CC4)nc32)CC1  >1145
4  CN1CCC(n2nc(NCc3nc4ccccc4[nH]3)c3ncc(C4CC4)nc32)C1 (racemic) [Example 35]  >1046
5  CC(C)(C)OC(=O)N1CCC(n2nc(NCc3nc4ccccc4[nH]3)c3ncc(C4CC4)nc32)CC1   >267

[ask] For the molecule shown here, COC(C)(C)CCn1nc(NCc2nc3ccccc3[nH]2)c2ncc(C3CC3)nc21 , give the reported (IC50 CDK12 high ATP) to (Degradation DC50 CDK12) ratio.
[reply] >937

[ask] For the molecule shown here, c1ccc2[nH]c(CNc3nn(CC4CCC4)c4nc(C5CC5)cnc34)nc2c1 , give the reported (IC50 CDK12 high ATP) to (Degradation DC50 CDK12) ratio.
[reply] >148

[ask] For the molecule shown here, c1ccc2[nH]c(CNc3nn(C4CCOC4)c4nc(C5CC5)cnc34)nc2c1 (single isomer, unassigned) [Example 18] , give the reported (IC50 CDK12 high ATP) to (Degradation DC50 CDK12) ratio.
[reply] >1142

====

Target: CDK12 (Homo sapiens, UniProt Q9NYV4)
Construct: endogenous in cells; host or cells: CAL-120 human breast cancer cells (DSMZ ACC 459)
Test: CDK12 nuclear protein level: immunofluorescence/high content analysis in CAL-120 cells
Type: cell-based
Conditions: CAL-120 cells; 24 h; nuclear CDK12 staining intensity; median; read-out: CDK12 degradation IF DC50 - [mol/l] (median)
assay endpoint: DC50 (nM)

# count of solved cases: 3
> print(dat)
                                   compound  value
1  CN1CCC(n2nc(NCc3nc4cc(F)c(F)cc4[nH]3)c3ncc(C4CC4)nc32)CC1 [Example 30]   17.1
2  OCCn1nc(NCc2nc3ccccc3[nH]2)c2ncc(C3CC3)nc21 [Example 66]   19.4
3  CC(CCN(C)C)n1nc(NCc2nc3ccccc3[nH]2)c2ncc(C3CC3)nc21 (racemic) [Example 62]    676

a = OC1(Cn2nc(NCc3nc4ccccc4[nH]3)c3ncc(C4CC4)nc32)CCCC1 [Example 73]
b = O=CO.c1ccc(-n2nc(NCc3nc4ccccc4[nH]3)c3ncc(C4CC4)nc32)cc1 [Example 13]
c = CN1CCCC(n2nc(NCc3nc4ccccc4[nH]3)c3ncc(C4CC4)nc32)CC1 (racemic) [Example 34]
d = CN1CCC(n2nc(NCc3nc4cc(C(F)(F)F)ccc4[nH]3)c3ncc(C4CC4)nc32)CC1 [Example 25]
e = CN1CCC(n2nc(NCc3nc4cc(F)ccc4[nH]3)c3ncc(C4CC4)nc32)CC1 [Example 4]
[ask] # rank_down: sort by DC50, max first # the answer lists labels in the order requested
[reply] a, b, c, d, e
(a: 112 nM, b: 43.9 nM, c: 14.2 nM, d: 8.43 nM, e: 4.3 nM)

====

List of pIC50 values.
Target: CDK9/CyclinT1 (Homo sapiens)
Construct: Recombinant full-length His-tagged human CDK9 and CycT1; His-tag
Sequence (P50750 whole entry): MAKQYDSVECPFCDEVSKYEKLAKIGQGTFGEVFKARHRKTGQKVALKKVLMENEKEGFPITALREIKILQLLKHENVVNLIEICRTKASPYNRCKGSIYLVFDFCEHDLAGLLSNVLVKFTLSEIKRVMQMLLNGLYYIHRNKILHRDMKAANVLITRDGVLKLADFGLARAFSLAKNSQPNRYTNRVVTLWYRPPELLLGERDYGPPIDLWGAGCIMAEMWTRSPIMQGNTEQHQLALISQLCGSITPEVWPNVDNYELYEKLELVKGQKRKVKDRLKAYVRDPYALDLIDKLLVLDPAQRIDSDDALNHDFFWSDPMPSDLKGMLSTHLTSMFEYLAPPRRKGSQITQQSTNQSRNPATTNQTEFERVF
Sequence (O60563 whole entry partner): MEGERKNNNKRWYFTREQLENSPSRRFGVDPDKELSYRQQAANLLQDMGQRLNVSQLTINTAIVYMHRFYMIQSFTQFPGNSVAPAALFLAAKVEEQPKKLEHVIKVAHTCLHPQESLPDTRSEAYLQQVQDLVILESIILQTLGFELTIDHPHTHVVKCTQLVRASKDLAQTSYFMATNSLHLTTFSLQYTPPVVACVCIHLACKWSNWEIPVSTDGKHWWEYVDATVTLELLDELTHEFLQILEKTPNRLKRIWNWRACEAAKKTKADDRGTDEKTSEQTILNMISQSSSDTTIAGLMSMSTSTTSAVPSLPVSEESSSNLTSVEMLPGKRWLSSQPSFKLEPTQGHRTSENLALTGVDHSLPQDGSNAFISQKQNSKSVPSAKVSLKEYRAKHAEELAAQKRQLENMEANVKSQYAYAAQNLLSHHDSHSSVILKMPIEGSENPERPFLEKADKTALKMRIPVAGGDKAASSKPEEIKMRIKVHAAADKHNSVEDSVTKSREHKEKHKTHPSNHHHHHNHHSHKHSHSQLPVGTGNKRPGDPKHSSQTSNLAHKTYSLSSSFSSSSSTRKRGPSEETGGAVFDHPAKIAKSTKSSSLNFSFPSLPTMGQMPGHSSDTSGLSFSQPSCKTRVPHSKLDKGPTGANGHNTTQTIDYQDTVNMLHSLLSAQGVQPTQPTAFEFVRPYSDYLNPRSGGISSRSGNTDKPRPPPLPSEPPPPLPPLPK
Assay: CDK9/CycT1 high ATP kinase assay (TR-FRET)
Conditions: 2 mM ATP (high ATP); median; read-out: CDK9/CyclinT1, 2 mM ATP (high ATP) IC50 - [mol/l] (median)
pIC50: −log10 of the molar value.

# count of solved cases: 3
> print(dat)
                                   compound                 system.tested  assay.endpoint   value
1  Cc1ccc2[nH]c(CNc3nn(C4CCN(C)CC4)c4nc(C5CC5)cnc34)nc2c1  CDK9/CyclinT1 (Homo sapiens)           pIC50  ≤ 4.90
2  CC(CCN(C)C)n1nc(NCc2nc3ccccc3[nH]2)c2ncc(C3CC3)nc21 (racemic) [Example 62]  CDK9/CyclinT1 (Homo sapiens)           pIC50  < 4.70
3  O[C@H]1C[C@@H](n2nc(NCc3nc4ccccc4[nH]3)c3ncc(C4CC4)nc32)C1  CDK9/CyclinT1 (Homo sapiens)           pIC50  < 4.70

[ask] Can you look up pIC50 on CDK9/CyclinT1 (Homo sapiens) for OC1(Cn2nc(NCc3nc4ccccc4[nH]3)c3ncc(C4CC4)nc32)CCCC1 ?
[reply] < 4.70

====

Biological target: CDK12/CyclinK (Homo sapiens, UniProt Q9NYV4)
Construct: His-CDK12 (aa Q696-S1082)
Sequence (Q9NYV4 with tags, fused parts or gaps): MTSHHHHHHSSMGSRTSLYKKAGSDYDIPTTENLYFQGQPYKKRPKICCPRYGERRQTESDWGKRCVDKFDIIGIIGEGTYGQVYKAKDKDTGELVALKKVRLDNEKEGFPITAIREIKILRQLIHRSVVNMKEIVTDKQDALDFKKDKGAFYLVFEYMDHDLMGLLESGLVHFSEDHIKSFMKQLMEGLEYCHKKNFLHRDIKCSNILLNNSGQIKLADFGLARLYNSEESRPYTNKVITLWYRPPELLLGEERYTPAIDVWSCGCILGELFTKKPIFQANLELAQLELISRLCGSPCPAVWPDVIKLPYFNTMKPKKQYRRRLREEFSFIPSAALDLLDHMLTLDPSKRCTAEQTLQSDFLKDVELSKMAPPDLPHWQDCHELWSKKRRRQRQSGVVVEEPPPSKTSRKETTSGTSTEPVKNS
Sequence (O75909 with tags, fused parts or gaps partner limits assumed): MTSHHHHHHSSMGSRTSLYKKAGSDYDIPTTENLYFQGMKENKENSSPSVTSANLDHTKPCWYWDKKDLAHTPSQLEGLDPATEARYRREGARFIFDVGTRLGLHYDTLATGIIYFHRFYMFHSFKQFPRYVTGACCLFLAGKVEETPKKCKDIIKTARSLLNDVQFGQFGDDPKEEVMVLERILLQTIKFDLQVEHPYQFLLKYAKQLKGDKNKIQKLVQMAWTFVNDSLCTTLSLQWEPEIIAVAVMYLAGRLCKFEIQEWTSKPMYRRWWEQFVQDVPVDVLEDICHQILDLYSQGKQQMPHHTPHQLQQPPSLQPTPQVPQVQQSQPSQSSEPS
Assay: CDK12/CycK high ATP kinase assay (TR-FRET)
Settings: 2 mM ATP (high ATP); median; read-out: CDK12/CyclinK, 2 mM ATP (high ATP), IC50 - [mol/l] (median)
pIC50: −log10 of the molar value.
List of pIC50 values.

> print(dat)
                                   compound  assay.endpoint   value
1  Cc1cnc2c(NCc3nc4ccccc4[nH]3)nn(C3CCN(C)CC3)c2n1           pIC50  < 4.70
2  CN1CCC(n2nc(NCc3nc4cc(SC(F)(F)F)ccc4[nH]3)c3ncc(C4CC4)nc32)CC1           pIC50    5.69
3  CN1CCCC(n2nc(NCc3nc4ccccc4[nH]3)c3ncc(C4CC4)nc32)CC1 (racemic) [Example 34]           pIC50  < 4.70

[ask] For the compound shown here, CN1CCC(n2nc(NCc3nc4c(F)cccc4[nH]3)c3ncc(C4CC4)nc32)CC1 , give the reported pIC50.
[reply] ≤ 4.94

[ask] For the compound shown here, CC1COCCC1n1nc(NCc2nc3ccccc3[nH]2)c2ncc(C3CC3)nc21 (racemic) , give the reported pIC50.
[reply] < 4.70

[ask] For the compound shown here, CN1CCC(n2nc(NCc3nc4ccccc4[nH]3)c3ncc(C4CC4)nc32)CC1 , give the reported pIC50.
[reply] < 4.70

[ask] For the compound shown here, CN1CCCC(n2nc(NCc3nc4ccccc4[nH]3)c3ncc(C4CC4)nc32)CC1 (single isomer, unassigned) [Example 38] , give the reported pIC50.
[reply] < 4.70

[ask] For the compound shown here, CN1CCC(n2nc(NCc3nc4ccccc4[nH]3)c3ncc(C4CC4)nc32)C1 (single isomer, unassigned) [Example 79] , give the reported pIC50.
[reply] < 4.70
